assay: Confirmatory qHTS for Huh7 cytotoxicity: counterscreen for inhibitors of MERS-S pseudo-typed particle cell entry; details: viability; series mostly up to 57.1 µM
Records with an inconclusive call do not appear. The source made the active and inactive calls. Calls follow the shape of the full dose curve.
endpoint name: Potency

These solved cases illustrate the format of a correct answer.
{"molecule": "CC[C@@H]([C@H](C)O)n1ncn(-c2ccc(N3CCN(c4ccc(OC[C@@H]5CO[C@@](Cn6cncn6)(c6ccc(F)cc6F)C5)cc4)CC3)cc2)c1=O", "endpoint name": "Potency", "test result": "inactive"}
{"molecule": "CCCCCCNC(=O)n1cc(F)c(=O)[nH]c1=O", "endpoint name": "Potency", "test result": "inactive"}
{"molecule": "CCCCN=C(N)N=C(N)N", "endpoint name": "Potency", "test result": "inactive"}
{"molecule": "C=CC(=O)Nc1cc(Nc2nccc(-c3cn(C)c4ccccc34)n2)c(OC)cc1N(C)CCN(C)C", "endpoint name": "Potency", "test result": "10.8 µM (active)"}
{"molecule": "CCn1cc(C(=O)O)c(=O)c2cc(F)c(N3CCNC(C)C3)c(F)c21 (centres undefined)", "endpoint name": "Potency", "test result": "inactive"}

Give me measured Potency, please, for this molecule: CCN(CC)CCNC(=O)c1c(C)[nH]c(/C=C2\C(=O)Nc3ccc(F)cc32)c1C
27.1 µM (active)

Indicate its recorded Potency; the molecule in question is Cc1cc(C(C#N)c2ccc(Cl)cc2)c(Cl)cc1NC(=O)c1cc(I)cc(I)c1O (centres undefined)
inactive

Kindly indicate its recorded Potency. Item: O=c1c(C2CC(c3ccc(-c4ccc(Br)cc4)cc3)Cc3ccccc32)c(O)sc2ccccc12 (centres undefined)
inactive

Let me know recorded Potency for COc1cc(N)c(Cl)cc1C(=O)NC1CCN(CCCOc2ccc(F)cc2)CC1OC (centres undefined) , thanks.
inactive

====

assay: Confirmatory qHTS for Huh7 cytotoxicity: counterscreen for inhibitors of MERS-S pseudo-typed particle cell entry; settings: viability; series mostly up to 57.1 µM
Records with an inconclusive call do not appear. The source made the active and inactive calls. Calls follow the shape of the full dose curve.
Outcomes you can answer with include only these: class 1 for active, class 0 for inactive

Assay outcome for CCCN1C[C@H](C)[C@@H](O)[C@](C)(O)[C@@H](CC)OC(=O)[C@H](C)[C@@H](O[C@H]2C[C@@](C)(OC)[C@@H](O)[C@H](C)O2)C(C)[C@@H](O[C@@H]2O[C@H](C)C[C@H](N(C)C)[C@H]2O)[C@](C)(O)C[C@H]1C (stereo partly drawn) : what was it?
class 0

# fetch the recorded call for CC(CN(C)C)CN1c2ccccc2CCc2ccccc21 (stereo not drawn) here
class 0

Which outcome did this test record for the compound Cc1c(N)nc(C(CC(N)=O)NCC(N)C(N)=O)nc1C(=O)NC(C(=O)NC(C)C(O)C(C)C(=O)NC(C(=O)NCCc1nc(-c2nc(C(=O)NCCCN[C@@H](C)c3ccccc3)cs2)cs1)C(C)O)C(O[C@@H]1O[C@@H](CO)[C@@H](O)[C@H](O)[C@@H]1O[C@H]1O[C@H](CO)[C@@H](O)[C@H](OC(N)=O)[C@@H]1O)c1cnc[nH]1 (stereo partly drawn) ?
class 0

In this assay, the call recorded for Cc1cc(-n2c(=O)[nH]c(=O)n(C)c2=O)ccc1Oc1ccc(S(=O)(=O)C(F)(F)F)cc1 was what?
class 0

Per the records of this test, what outcome belongs to O=c1ccc2ccccc2o1 ?
class 0

Name the outcome recorded for Cc1nnc2n1-c1sc(CCc3ccc(CC(C)C)cc3)cc1C(c1ccccc1Cl)=NC2C (stereo not drawn) in the assay.
class 0

For this compound, state the assay outcome: O=C(Nc1ccc([N+](=O)[O-])cc1Cl)c1cc(Cl)ccc1O
class 1

# lookup: test call for CC(=O)N1CCN(c2ccc(OC[C@H]3CO[C@](Cn4ccnc4)(c4ccc(Cl)cc4Cl)O3)cc2)CC1
class 0

====

test: Confirmatory qHTS for Huh7 cytotoxicity: counterscreen for inhibitors of MERS-S pseudo-typed particle cell entry; conditions: viability; series mostly up to 57.1 µM
Inconclusive results are not listed. Calls of active or inactive are those of the source. The call rests on the fitted dose curve.
endpoint name: Potency

Sample records with Potency:
{"compound": "CCCCc1oc2ccccc2c1C(=O)c1cc(I)c(OCCN(CC)CC)c(I)c1", "endpoint name": "Potency", "test result": "inactive"}
{"compound": "C[C@]12CC[C@H](O)C[C@H]1CCC1C2CC[C@]2(C)[C@@H](c3ccc(=O)oc3)C[C@H]3O[C@]132 (some centres undefined)", "endpoint name": "Potency", "test result": "15.2 µM (active)"}
{"compound": "COc1cccc2c1C(=O)c1c(O)c3c(c(O)c1C2=O)C[C@@](O)(C(=O)CO)C[C@@H]3O[C@H]1C[C@H](N)[C@@H](O)[C@H](C)O1", "endpoint name": "Potency", "test result": "2.15 µM (active)"}
{"compound": "O=C1c2c(O)ccc(O)c2C(=O)c2c(NCCNCCO)ccc(NCCNCCO)c21", "endpoint name": "Potency", "test result": "17.1 µM (active)"}
{"compound": "c1ccc2c(c1)Sc1ccccc1N2CC1CN2CCC1CC2 (centres undefined)", "endpoint name": "Potency", "test result": "30.4 µM (active)"}
{"compound": "N=C(N)c1ccc(OCCCCCOc2ccc(C(=N)N)cc2)cc1", "endpoint name": "Potency", "test result": "inactive"}
{"compound": "N/C(=N\\N=C\\c1ccc(Cl)cc1)N/N=C/c1ccc(Cl)cc1", "endpoint name": "Potency", "test result": "inactive"}
{"compound": "CN1CCC(=C2c3ccccc3C=Cc3ccccc32)CC1", "endpoint name": "Potency", "test result": "inactive"}

Tell us which Potency value is on record for COc1cc([C@@H]2c3cc4c(cc3C(O[C@@H]3O[C@@H]5CO[C@@H](c6cccs6)OC5[C@H](O)[C@H]3O)C3COC(=O)[C@@H]32)OCO4)cc(OC)c1O (some centres undefined)
5.41 µM (active)
